Each recorded value in this set is attributed to the supplement of paper PMC3724861.

System: Caupolican (Caup) homeodomain DNA-binding domain
Sequence: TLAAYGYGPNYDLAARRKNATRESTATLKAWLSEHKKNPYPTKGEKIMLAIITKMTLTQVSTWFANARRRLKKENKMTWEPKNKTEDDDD
assay_text: PBM E-score (8-mer, recovered from the published 9-mer minima) (E-score (dimensionless, -0.5 to 0.5)); higher = stronger relative binding preference, active = 0.31 or more
The sample as a whole holds a higher share of hits than the screen did. How many sequences the whole screen found active is unknown.
Listed here: items and their measured PBM E-score.
readout_label: PBM E-score

- macromolecule_sequence: "CTACACGA"
  reported_measurement: 0.295
- macromolecule_sequence: "ATCTACAT"
  reported_measurement: 0.29
- macromolecule_sequence: "ATGACAAT"
  reported_measurement: 0.274
- macromolecule_sequence: "ATGACAGC"
  reported_measurement: 0.202
- macromolecule_sequence: "GACGGCTA"
  reported_measurement: -0.167
- macromolecule_sequence: "ACCATGGT"
  reported_measurement: 0.127
- macromolecule_sequence: "AAACACAA"
  reported_measurement: 0.27
- macromolecule_sequence: "ATACACGG"
  reported_measurement: 0.299
- macromolecule_sequence: "GCAAGAAC"
  reported_measurement: 0.00872
- macromolecule_sequence: "ATGTACCG"
  reported_measurement: 0.287
- macromolecule_sequence: "ATCGGGGG"
  reported_measurement: -0.264
- macromolecule_sequence: "CTGACAAG"
  reported_measurement: 0.341
- macromolecule_sequence: "ACAAGTGG"
  reported_measurement: 0.205

* * *

Test system: Caupolican (Caup) homeodomain DNA-binding domain
Sequence: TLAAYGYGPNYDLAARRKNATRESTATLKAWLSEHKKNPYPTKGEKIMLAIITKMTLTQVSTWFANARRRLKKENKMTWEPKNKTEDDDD
assay_text: PBM E-score (8-mer, recovered from the published 9-mer minima) (E-score (dimensionless, -0.5 to 0.5)); higher = stronger relative binding preference, active = 0.31 or more
Many of the other results were omitted from the sample, so hits are more common in it than they were. The hit rate among all sequences tested is not known here.
Possible outcomes: active, inactive

- macromolecule_sequence: "ATTTAGTC"
  group_label: "inactive"
- macromolecule_sequence: "GCATGTAC"
  group_label: "active"
- macromolecule_sequence: "GTAACAAC"
  group_label: "active"
- macromolecule_sequence: "CTACAACA"
  group_label: "active"
- macromolecule_sequence: "GTACAACA"
  group_label: "active"
- macromolecule_sequence: "CCCTGTAA"
  group_label: "inactive"
- macromolecule_sequence: "CGATGTGC"
  group_label: "inactive"
- macromolecule_sequence: "TCTGTACA"
  group_label: "inactive"
- macromolecule_sequence: "GCCACCAC"
  group_label: "inactive"
- macromolecule_sequence: "ATCGAAAC"
  group_label: "inactive"
- macromolecule_sequence: "CTTGAACC"
  group_label: "inactive"
- macromolecule_sequence: "CGATTGAA"
  group_label: "inactive"
- macromolecule_sequence: "ACATGTAG"
  group_label: "active"
- macromolecule_sequence: "CCATGTAA"
  group_label: "active"
- macromolecule_sequence: "CGAGAAGC"
  group_label: "inactive"

* * *

System: Caupolican (Caup) homeodomain DNA-binding domain
Sequence: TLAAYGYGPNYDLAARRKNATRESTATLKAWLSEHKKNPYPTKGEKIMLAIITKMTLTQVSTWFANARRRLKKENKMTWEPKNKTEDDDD
assay_text: PBM E-score (8-mer, recovered from the published 9-mer minima) (E-score (dimensionless, -0.5 to 0.5)); higher = stronger relative binding preference, active = 0.31 or more
The full list was thinned out, with hits kept by preference. How many sequences the whole screen found active is unknown.
Labels: 1 (active), -1 (inactive)

- macromolecule_sequence: "ACACCCTC"
  group_label: -1
- macromolecule_sequence: "CACTCTTC"
  group_label: -1
- macromolecule_sequence: "GCCATAAC"
  group_label: -1
- macromolecule_sequence: "ACATATCA"
  group_label: 1
- macromolecule_sequence: "AATGTACA"
  group_label: 1
- macromolecule_sequence: "CCATATTA"
  group_label: -1

* * *

System: Caupolican (Caup) homeodomain DNA-binding domain
Sequence: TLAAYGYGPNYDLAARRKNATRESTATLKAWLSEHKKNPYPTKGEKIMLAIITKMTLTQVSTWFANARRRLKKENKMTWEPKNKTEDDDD
assay_text: PBM E-score (8-mer, recovered from the published 9-mer minima) (E-score (dimensionless, -0.5 to 0.5)); higher = stronger relative binding preference, active = 0.31 or more
This excerpt belongs to a sample that is enriched for hits. The hit rate among all sequences tested is not known here.
Classes used: active, inactive

- macromolecule_sequence: "ACATGTTC"
  group_label: "active"
- macromolecule_sequence: "AAGCACCG"
  group_label: "inactive"
- macromolecule_sequence: "GTATTACA"
  group_label: "inactive"
- macromolecule_sequence: "CCATGTTA"
  group_label: "active"
- macromolecule_sequence: "GCGTTACA"
  group_label: "inactive"
- macromolecule_sequence: "ATTGTCAC"
  group_label: "inactive"
- macromolecule_sequence: "ATCCAATC"
  group_label: "inactive"

* * *

Tested on: Caupolican (Caup) homeodomain DNA-binding domain
Sequence: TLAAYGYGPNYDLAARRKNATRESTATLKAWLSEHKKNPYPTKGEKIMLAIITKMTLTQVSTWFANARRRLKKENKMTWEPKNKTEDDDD
assay_text: PBM E-score (8-mer, recovered from the published 9-mer minima) (E-score (dimensionless, -0.5 to 0.5)); higher = stronger relative binding preference, active = 0.31 or more
Shown is part of a subset that was picked to be rich in hits. No count for the full screen is at hand.
Outcome codes: active, inactive

- macromolecule_sequence: "CATATCAG"
  assayed_target: "Caupolican (Caup) homeodomain DNA-binding domain"
  group_label: "inactive"
- macromolecule_sequence: "AGTGTAGA"
  assayed_target: "Caupolican (Caup) homeodomain DNA-binding domain"
  group_label: "inactive"
- macromolecule_sequence: "AGCCCTCA"
  assayed_target: "Caupolican (Caup) homeodomain DNA-binding domain"
  group_label: "inactive"
- macromolecule_sequence: "AAACAATG"
  assayed_target: "Caupolican (Caup) homeodomain DNA-binding domain"
  group_label: "inactive"
- macromolecule_sequence: "TAGTAACA"
  assayed_target: "Caupolican (Caup) homeodomain DNA-binding domain"
  group_label: "active"
- macromolecule_sequence: "CTGTGAAG"
  assayed_target: "Caupolican (Caup) homeodomain DNA-binding domain"
  group_label: "inactive"
- macromolecule_sequence: "CCCAGCAG"
  assayed_target: "Caupolican (Caup) homeodomain DNA-binding domain"
  group_label: "inactive"
- macromolecule_sequence: "TGTTAACA"
  assayed_target: "Caupolican (Caup) homeodomain DNA-binding domain"
  group_label: "active"
- macromolecule_sequence: "AGTACGGA"
  assayed_target: "Caupolican (Caup) homeodomain DNA-binding domain"
  group_label: "inactive"
- macromolecule_sequence: "ACCCCTCG"
  assayed_target: "Caupolican (Caup) homeodomain DNA-binding domain"
  group_label: "inactive"
- macromolecule_sequence: "AATTTGGA"
  assayed_target: "Caupolican (Caup) homeodomain DNA-binding domain"
  group_label: "inactive"
- macromolecule_sequence: "ACAGTAAA"
  assayed_target: "Caupolican (Caup) homeodomain DNA-binding domain"
  group_label: "inactive"
- macromolecule_sequence: "CAAGCTGA"
  assayed_target: "Caupolican (Caup) homeodomain DNA-binding domain"
  group_label: "inactive"
- macromolecule_sequence: "ATGTGTCA"
  assayed_target: "Caupolican (Caup) homeodomain DNA-binding domain"
  group_label: "inactive"
- macromolecule_sequence: "CAATGTCA"
  assayed_target: "Caupolican (Caup) homeodomain DNA-binding domain"
  group_label: "inactive"
- macromolecule_sequence: "AGCGTAGC"
  assayed_target: "Caupolican (Caup) homeodomain DNA-binding domain"
  group_label: "inactive"
- macromolecule_sequence: "AATTAGAG"
  assayed_target: "Caupolican (Caup) homeodomain DNA-binding domain"
  group_label: "inactive"
- macromolecule_sequence: "ACGTGTCA"
  assayed_target: "Caupolican (Caup) homeodomain DNA-binding domain"
  group_label: "active"
- macromolecule_sequence: "ACGTGTCG"
  assayed_target: "Caupolican (Caup) homeodomain DNA-binding domain"
  group_label: "inactive"
- macromolecule_sequence: "ATATGTCG"
  assayed_target: "Caupolican (Caup) homeodomain DNA-binding domain"
  group_label: "inactive"
- macromolecule_sequence: "AGTGTACA"
  assayed_target: "Caupolican (Caup) homeodomain DNA-binding domain"
  group_label: "active"

* * *

Tested on: Caupolican (Caup) homeodomain DNA-binding domain
Sequence: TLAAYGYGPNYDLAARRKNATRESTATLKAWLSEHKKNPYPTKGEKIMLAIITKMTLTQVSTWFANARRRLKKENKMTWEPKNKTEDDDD
assay_text: PBM E-score (8-mer, recovered from the published 9-mer minima) (E-score (dimensionless, -0.5 to 0.5)); Drosophila protein; higher = stronger relative binding preference, active = 0.31 or more
This excerpt belongs to a sample that is enriched for hits. How many sequences the whole screen found active is unknown.
Labels: active, inactive

- macromolecule_sequence: "TTGTACAA"
  group_label: "active"
- macromolecule_sequence: "GCCCGTAC"
  group_label: "inactive"
- macromolecule_sequence: "CGGGAACA"
  group_label: "inactive"
- macromolecule_sequence: "GCACATGC"
  group_label: "inactive"
- macromolecule_sequence: "GTGGCTTA"
  group_label: "inactive"
- macromolecule_sequence: "AGATCGCC"
  group_label: "inactive"
- macromolecule_sequence: "CTGTACGC"
  group_label: "inactive"
- macromolecule_sequence: "AACGTGTA"
  group_label: "active"
- macromolecule_sequence: "GACGTGGA"
  group_label: "inactive"
- macromolecule_sequence: "CTGTGTAC"
  group_label: "inactive"
- macromolecule_sequence: "AACACGCT"
  group_label: "inactive"
- macromolecule_sequence: "ATGATGTC"
  group_label: "active"
- macromolecule_sequence: "ACGACTGC"
  group_label: "inactive"
- macromolecule_sequence: "CGTCTTGA"
  group_label: "inactive"
- macromolecule_sequence: "CTGATGTC"
  group_label: "inactive"
- macromolecule_sequence: "AACACGGG"
  group_label: "active"
- macromolecule_sequence: "ACGCGACT"
  group_label: "inactive"
- macromolecule_sequence: "GCGCCCTA"
  group_label: "inactive"
- macromolecule_sequence: "TACATCAA"
  group_label: "active"
- macromolecule_sequence: "CCCACGAG"
  group_label: "inactive"
- macromolecule_sequence: "GTACATAC"
  group_label: "inactive"
- macromolecule_sequence: "ATTACTAC"
  group_label: "inactive"
- macromolecule_sequence: "CACATCAA"
  group_label: "inactive"
- macromolecule_sequence: "ATGTGTAG"
  group_label: "inactive"
- macromolecule_sequence: "CAAGTGGG"
  group_label: "inactive"
- macromolecule_sequence: "GACATCAA"
  group_label: "inactive"
- macromolecule_sequence: "ATGTAGAA"
  group_label: "inactive"
- macromolecule_sequence: "CCACAGGA"
  group_label: "inactive"
- macromolecule_sequence: "GACACGAC"
  group_label: "active"
- macromolecule_sequence: "AGCCCACT"
  group_label: "inactive"
- macromolecule_sequence: "CAGCACGG"
  group_label: "inactive"
- macromolecule_sequence: "AAACATCC"
  group_label: "inactive"
- macromolecule_sequence: "GTTGAGTA"
  group_label: "inactive"
- macromolecule_sequence: "CGCAGCCG"
  group_label: "inactive"
- macromolecule_sequence: "AACACGGC"
  group_label: "inactive"
- macromolecule_sequence: "GAAAATCA"
  group_label: "inactive"
- macromolecule_sequence: "ACACATGT"
  group_label: "active"
- macromolecule_sequence: "CACACGAC"
  group_label: "inactive"
- macromolecule_sequence: "CATTCCCA"
  group_label: "inactive"
- macromolecule_sequence: "CTGTACAA"
  group_label: "active"
- macromolecule_sequence: "GTCGGCCA"
  group_label: "inactive"
- macromolecule_sequence: "ATTACAAG"
  group_label: "active"
- macromolecule_sequence: "ACGTACAA"
  group_label: "inactive"
- macromolecule_sequence: "CACACGGG"
  group_label: "inactive"
- macromolecule_sequence: "CCGGGTGC"
  group_label: "inactive"
- macromolecule_sequence: "AGTACACA"
  group_label: "active"
- macromolecule_sequence: "AGCACACA"
  group_label: "inactive"
- macromolecule_sequence: "AACATCAC"
  group_label: "inactive"
- macromolecule_sequence: "ATGTCCAG"
  group_label: "inactive"
- macromolecule_sequence: "AAACATGC"
  group_label: "active"
- macromolecule_sequence: "TGCGCCCA"
  group_label: "inactive"
- macromolecule_sequence: "ATTACAAC"
  group_label: "active"
- macromolecule_sequence: "CATTTGCG"
  group_label: "inactive"
- macromolecule_sequence: "GAACATCC"
  group_label: "inactive"
